Origin of values: PubChem BioAssay (NCI)

# TEST_NAME: NCI Yeast Anticancer Drug Screen. Data for the rad50 strain (AID 155);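 note: 0% = growth of vehicle-only cultures of the same strain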
# RECORDED_CONDITIONS: S. cerevisiae rad50 strain growth inhibition; at 50.0 µM; stronger effect = higher value
Compounds without any hit were thinned out: in the full panel of roughly 79,000, 15% have a hit.
TEST_READOUT: growth inhibition (%)
Please state the figure in %; there is no need to write the unit.

Solved cases below.
[[record]]
compound = "Nc1cc(Cl)cc2cc(Cl)cnc12"
unit_of_measure = "%"
result = 54.2

[[record]]
compound = "O=C1OCCc2c1[nH]c1ccccc21"
unit_of_measure = "%"
result = 12.9

[[record]]
compound = "O=[N+]([O-])c1ccc(SC2=NCCCN2C2CCCCC2)c(Cl)c1"
unit_of_measure = "%"
result = -0.1

[[record]]
compound = "Cn1cc(C2NC(=O)c3ccccc3N2)c2ccccc21 (stereo not drawn)"
unit_of_measure = "%"
result = -25.1

[[record]]
compound = "CCc1cc2c(cc1/C(C)=N/N=C(\\C)c1cc3c(cc1CC)C(C)(C)CCC3(C)C)C(C)(C)CCC2(C)C"
unit_of_measure = "%"
result = -27.1

[[record]]
compound = "CCCC(NC(=O)CN)C(=O)O (stereo not drawn)"
unit_of_measure = "%"
result = 14.8

[[record]]
compound = "O=C(O)C(=O)C(=O)O"
unit_of_measure = "%"
result = -23

[[record]]
compound = "COC1OC(COS(C)(=O)=O)C(OS(C)(=O)=O)C(OS(C)(=O)=O)C1OS(C)(=O)=O (stereo not drawn)"
unit_of_measure = "%"
result = -2.8


Recorded growth inhibition of Cc1ccc(NC(=O)C(=O)CC(=O)c2c(C)n([O-])c3ccccc3[n+]2=O)cc1C , please.
-6.2

Recorded growth inhibition of Cc1ccc(S(=O)(=O)N2CN(S(=O)(=O)c3ccc(C)cc3)CN(S(=O)(=O)c3ccc(C)cc3)C2)cc1 , please.
-29.4

Recorded growth inhibition of CC(=O)NC1C(SC(=O)NCCCl)OC(COC(C)=O)C(OC(C)=O)C1OC(C)=O (stereo not drawn) , please.
-7.75

Recorded growth inhibition of Cc1ccc(/C(O)=C/c2nc3ccccc3oc2=O)cc1 , please.
20.2

Recorded growth inhibition of O=C1OCC/C1=C\c1cccc2ccccc12 , please.
5.2

Recorded growth inhibition of Nc1nc([O-])c([I+]c2ccccc2)c(=O)[nH]1 , please.
-17.5

Recorded growth inhibition of CC(C)=C(CO)CCC(C)C , please.
-9.3

Recorded growth inhibition of CN(Cc1ccccc1)C(=O)c1ccccc1C(=O)O , please.
-9.2

Recorded growth inhibition of CCCC1(C)OCC(CCl)O1 (stereo not drawn) , please.
-41.6

Recorded growth inhibition of COc1ccc(C2CC(=O)Oc3cc4c(cc32)OCO4)cc1 (stereo not drawn) , please.
-10.2
